Listed here: items and their measured transcriptional activation domain activity.
- Test system: Saccharomyces cerevisiae
- assayComment: transcriptional activation domain activity (GFP:mCherry ratio, weighted mean of sorted bins, harmonized to initial dataset scale) (arbitrary fluorescence ratio units); higher = stronger transcriptional activation
- measurementConditions: beta-estradiol 1 µM; induction time 4 h
The answer should be a number; do not append a unit.

Consider the reported transcriptional activation domain activity for these sequences:
| seq | observedValue |
| --- | --- |
| TNPDKIRLIPGFKYLQLVLGRDQYCREILAMMARMGFLMPKTMYSTLLRLWLL | 65200 |
| KVNQRKENKNNKNDEDNDDDNDDEEGKEKDKEEEKKDKKKKNKKCKHKKNKNK | 21700 |
| NSTIHNLLELVLLPELCGFCCFSMRFVVMIDLIGTLTLPSSVVYLVYLIYVVI | 56700 |
| EARTLVMHAQQGFSFHFGCQMSLSGMMLLSYILLLPPIFTGYQLLWLLWIVFP | 61400 |
| MVQNWEFFVFFFLPFNSFFSFFLPFCEVYMCAVCGLWCGSPGKLLGLFYFWFV | 36600 |

Prompt line: So what does the record say about transcriptional activation domain activity for `EAPAPVEEQPVQEPEPEAIPEPEPVPQETPQAYEEPPAPEPKPAPTPKAQPVQ` ?
Response line: 23300

Prompt line: Now the sequence `RRDCATSSDARTPARLCCSHGVGTKLDKAETSREVSAEEARALADAHGARFCE`
Response line: 24300

From: the supplement of paper PMC12636428
